Reference source: PubChem BioAssay (NCI)

Test system: SNB-75 CNS
Experiment: NCI-60 one-dose screen, 48 h (100 = growth as untreated, 0 = no growth, -100 = all killed)
Conditions: 10 µM unless noted
Experimental: Growth inhibition of the SNB-75 human tumor cell line is measured as a screen for anti-cancer activity. Cells are grown in 96 well plates and exposed to the test compound for 48 hours. Compounds are tested at a single concentration, which is 10^-5 M for most compounds. The reported endpoint is percent growth (GI% or GIPRCNT), where numbers from 0 - 100% represent growth inhibition, and numbers from -100% - 0 represent cell death. For example, a value of 40 represents 60% growth inhibition. […]
This is part of a sample that, as a whole, favours compounds with a hit. Of some 83,000 tested, about 20% had one in any assay.
A collection of compounds and their measured growth
Write the number in % without appending the unit.

Illustrative cases are given below, each with its answer.
// `COc1ccc(-c2cc(-c3ccc(Nc4nc(Nc5ccccc5)nc(Nc5ccc(Cl)cc5)n4)cc3)nc(N)c2C#N)cc1` : growth value = 26.7

Record `NS(=O)(=O)Oc1ccc(-c2sc3cc(O)ccc3c2C(=O)c2ccc(OCCN3CCCCC3)cc2)cc1` , field growth: 39.6

Short answer for `Cc1nc(C)c(-c2nn3c(-c4cccc(F)c4)nnc3s2)s1` : growth was 113

Next:
According to the records, this compound `COc1cc(/C=C2\C=C(c3ccccc3)N(CCc3ccccc3)C2=O)cc(OC)c1OC` displays growth of -6.74

The compound `COC(=O)/C(=C\c1ccc(OC)cc1)C(=O)N1c2ccccc2Sc2ccccc21` showed growth equal to 2.37

So for `CCNCCNc1cc(-c2ccc(C(=O)OC)cc2)c(C#N)c2nc3ccccc3n12` , the logged growth turned out to be -38.2

# growth of C=C(CNCCc1ccc(O)cc1)[C@@H]1CC[C@]2(COC3CCCCO3)CC[C@]3(C)[C@H](CC[C@@H]4[C@@]5(C)CCC(NCCO)C(C)(C)[C@@H]5CC[C@]43C)[C@@H]12 (some centres undefined) = -17.6

// growth value for `COC(=O)c1ccc(CSc2nnc(-c3ccncc3)o2)cc1` : 81.9

Quick note, growth for O=C(/C=C/C12c3ccccc3C(c3ccccc31)C1C(=O)NC(=O)C12)c1ccc(Cl)cc1 (centres undefined) landed at 8.43

====

System: PC-3 prostate
Assay: NCI-60 one-dose screen, 48 h (100 = growth as untreated, 0 = no growth, -100 = all killed)
Conditions: 10 µM unless noted
About 83,000 compounds went through this panel and 20% of them were active in at least one assay; those are over-represented in the sample as a whole.
measurement-name: growth (%)
# value in %; strip the unit string

Completed entries (count: 3):
For record `CCNCCNc1cc(-c2cccc(C(F)(F)F)c2)c(C#N)c2nc3ccccc3n12` the listed growth is -59

Recorded result, `CCc1c(C(=O)N[C@@H]2c3cc(Cl)ccc3CC[C@@H]2O)[nH]c(C)c1C(C)=O` , growth: 49.8

Data point: `Cc1nc(Nc2ccc(NC(=S)Nc3ccccc3)cc2)nc2nc(Nc3ccc(S(=O)(=O)O)cc3)[nH]c(=O)c12` ; growth = 99.5

---
Memo: `Cc1cc(C(c2ccccc2)c2ccccc2)ccc1NS(=O)(=O)c1ccccc1` , reported growth: 83.6

====

Test system: OVCAR-5 ovarian
Assay: NCI-60 one-dose screen, 48 h (100 = growth as untreated, 0 = no growth, -100 = all killed)
Conditions: 10 µM unless noted
This is part of a sample that, as a whole, favours compounds with a hit. Of some 83,000 tested, about 20% had one in any assay.
measurement-name: growth (%)
Please respond with the number in % and leave the unit unwritten.

Tested on OVCAR-5 ovarian: C=C1c2c(C)nn(-c3ccc(O)cc3)c2N(C)C23C[C@@H]1C1(C)c4c(C)nn(-c5ccc(O)cc5)c4N(C)C(C)(C[C@H]12)C3 (stereo not given in full) . Observed growth: 85.8

Entry `Oc1ccccc1-c1nc2ccccn2c1NCCN1CCOCC1` , tested on OVCAR-5 ovarian, has a reported growth of 91.6

Response field growth (OVCAR-5 ovarian) for item `C=C(Cl)COC(=O)C(C)(C)O` : 102

growth value, target or system OVCAR-5 ovarian, for `O=C(CCl)N1c2cccc3cccc(c23)N(C(=O)CCl)C1c1cn(-c2ccccc2)nc1-c1cccc([N+](=O)[O-])c1` : 108

Here's the next entry for you.
Bench note, OVCAR-5 ovarian: `C[C@H]1[C@H](C)CC[C@]2(C(=O)N3CCN(C)CC3)CC[C@]3(C)C(=CC[C@@H]4[C@@]5(C)C/C(=C/c6cccnc6)C(=O)C(C)(C)[C@@H]5CC[C@]43C)[C@H]12` , growth reads -77.8
